Taken from PubChem BioAssay (EPA / NIEHS).

Molecular target: human Serotonin, 5-Hydroxytryptamine Receptor 5A (5HT5A), HTR5A (gene 3361) (UniProt P47898)
Sequence (P47898 whole entry, looked up): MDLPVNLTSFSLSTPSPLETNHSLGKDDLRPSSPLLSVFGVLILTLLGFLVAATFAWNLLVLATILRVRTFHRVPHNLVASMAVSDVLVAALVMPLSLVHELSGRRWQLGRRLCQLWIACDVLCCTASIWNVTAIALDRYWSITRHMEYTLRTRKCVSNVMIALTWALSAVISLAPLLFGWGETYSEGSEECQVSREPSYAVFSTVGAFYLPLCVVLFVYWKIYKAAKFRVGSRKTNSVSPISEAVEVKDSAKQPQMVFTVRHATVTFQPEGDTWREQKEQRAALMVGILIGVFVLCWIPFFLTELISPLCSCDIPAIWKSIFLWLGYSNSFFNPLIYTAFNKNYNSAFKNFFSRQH
Test: NVS_GPCR_h5HT5A: NovaScreen (NVS) G Protein-Coupled Receptor Assay for human Serotonin, 5-Hydroxytryptamine Receptor 5A (5HT5A) (AID 2283251)
Records with an inconclusive call do not appear. Active and inactive are the calls of the source. The calls were made as follows: active = hit-call score of the fitted dose curve at least 0.9, where 1 is the maximum; inconclusive = response in the unintended direction; inactive = score below 0.9.
Classes used: active, inactive

INSERT INTO results (smiles_record, class_assignment) VALUES
  ('COc1ccc2cc(S(=O)(=O)N[C@H](CC(=O)N[C@H](Cc3ccc(CN4[C@H](C)CCC[C@@H]4C)cc3)C(=O)N(C)C(C)C)c3ccc4c(c3)OCO4)ccc2c1', 'inactive'),
  ('CCOC(=O)O[C@H](C)OC(=O)c1ccc2c(c1)cc(C(=O)NC1CCN(C(C)C)CC1)n2Cc1cc(-c2ccc(Cl)s2)on1', 'active'),
  ('CCN(Cc1cccnc1)C(=O)c1cccc(Cl)c1[C@]1(C)C(=O)N(Cc2ccc(OC)cc2OC)c2ccc(Cl)cc21', 'active'),
  ('NCc1cccc(C2CCN(C(=O)c3ccc(C#Cc4ccccc4F)o3)CC2)c1', 'active');

###

Read-out: Vascular cell adhesion molecule 1 (VCAM1), VCAM1 (gene 7412)
Test: BSK_CASM3C_VCAM1: BioMAP Diversity Plus: CASM3C Assay for Vascular cell adhesion molecule 1 (VCAM1) Biomarker Activity (AID 2283055);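 also: VCAM-1 protein level quantified by ELISA on the cells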
Details: primary human coronary artery smooth muscle cells; actives raise or lower the signal
The source made the active and inactive calls. Rule for the calls: active = hit-call score of the fitted dose curve at least 0.9, where 1 is the maximum; inactive = score below 0.9.
Classes used: active, inactive

INSERT INTO results (compound, class_assignment) VALUES
  ('CCCC(=O)OCCC(C)C', 'inactive'),
  ('c1ccc2n[nH]nc2c1', 'inactive'),
  ('CC(O)CC(C)(C)O (configuration not stated)', 'inactive'),
  ('C[C@]12CC[C@@H]3c4ccc(O)cc4CC[C@H]3[C@@H]1CCC2=O', 'inactive'),
  ('Cc1cc(F)ccc1-c1cc(N2CC[C@@H](O)[C@H]2CO)ncc1N(C)C(=O)C(C)(C)c1cc(C(F)(F)F)cc(C(F)(F)F)c1', 'active'),
  ('CC1(C)NC(=O)N(c2ccc([N+](=O)[O-])c(C(F)(F)F)c2)C1=O', 'inactive'),
  ('Cc1ncc(CO)c(CO)c1O', 'inactive'),
  ('O=C(O)Cn1c(=O)n(Cc2ccc(Br)cc2F)c(=O)c2ccc(Cl)cc21', 'inactive'),
  ('O=C(O)Cc1cc(I)c(Oc2ccc(O)c(I)c2)c(I)c1', 'inactive'),
  ('NCc1cccc(C2CCN(C(=O)c3ccc(C#Cc4ccccc4F)o3)CC2)c1', 'active'),
  ('CCCCCCCCCCCO', 'inactive'),
  ('CCCCCCCCN(C)CCCCCCCC', 'inactive'),
  ('COCC(C)OCC(C)OCC(C)O (configuration not stated)', 'inactive'),
  ('Cc1cn([C@H]2C[C@H](N=[N+]=[N-])[C@@H](CO)O2)c(=O)[nH]c1=O', 'inactive'),
  ('O=CCCCC=O', 'active'),
  ('CCO[Si](CCCNC(N)=O)(OCC)OCC', 'inactive'),
  ('O=C1O[C@H]([C@@H](O)CO)C(O)=C1O', 'inactive'),
  ('O=C(Nc1ccc(Cl)cc1)Nc1ccc(Cl)c(Cl)c1', 'inactive'),
  ('O=C(OCCCCCCOC(=O)c1ccccc1)c1ccccc1', 'inactive'),
  ('CCN(Cc1cccc(S(=O)(=O)O)c1)c1ccc(C(=C2C=CC(=[N+](CC)Cc3cccc(S(=O)(=O)O)c3)C=C2)c2ccccc2S(=O)(=O)[O-])cc1', 'inactive'),
  ('CC[C@H](NC(=O)c1cc(F)ccc1NS(=O)(=O)c1cccc2cccnc12)c1ccccc1', 'inactive'),
  ('CCCCCCCCCC(=O)O', 'inactive'),
  ('c1ccc2ccccc2c1', 'inactive'),
  ('COc1cc(C(=O)NC2CCN(C)CC2)ccc1Nc1ncc2c(n1)N(C1CCCC1)CC(F)(F)C(=O)N2C', 'active'),
  ('Oc1ccc2ccccc2c1', 'inactive'),
  ('COc1cccc([C@H](O)C2CCN(CCc3ccc(F)cc3)CC2)c1OC', 'inactive'),
  ('CC(C)(O)c1ccc(CNC(=O)c2cccnc2Oc2ccc3nonc3c2)cc1', 'inactive'),
  ('CCCCOC(=O)CC(CC(=O)OCCCC)(OC(C)=O)C(=O)OCCCC', 'inactive'),
  ('c1ccc(C[n+]2cccc3ccccc32)cc1', 'inactive'),
  ('CN1C(=O)N(c2ccccc2Br)Cc2cnc(Nc3ccc4c(c3)OCC(CO)O4)nc21 (configuration not stated)', 'inactive'),
  ('CC(C)(c1cc(Br)c(O)c(Br)c1)c1cc(Br)c(O)c(Br)c1', 'active'),
  ('O=C1CCC(C2CCCCC2)CC1', 'inactive'),
  ('OC12N=C(c3ccccc3)SC1Cc1cc(Cl)ccc12 (configuration not stated)', 'inactive'),
  ('CC[C@@H]1C[C@H](N(Cc2cc(C(F)(F)F)cc(C(F)(F)F)c2)C(C)=O)c2cc(C(F)(F)F)ccc2N1C(=O)OC(C)C', 'inactive'),
  ('Cc1cc2c(cc1C(F)(F)F)N(C(=O)Nc1ccc(Oc3cccnc3C)nc1)CC2', 'active'),
  ('Cc1oc2c(NC(=O)c3c(Cl)cccc3Cl)cccc2c1C(C)(C)O', 'inactive'),
  ('CC(C)(C)c1cc(/C=C2\SC(N)=NC2=O)cc(C(C)(C)C)c1O', 'active');
